Target: human DGKα (Homo sapiens, UniProt P23743)
Construct: TVMV protease cleavage site (C); Hexa-His (C); made in house; host or cells: Sf9 insect cells (baculovirus, Bac-to-Bac)
Sequence (P23743 with tags, fused parts or gaps): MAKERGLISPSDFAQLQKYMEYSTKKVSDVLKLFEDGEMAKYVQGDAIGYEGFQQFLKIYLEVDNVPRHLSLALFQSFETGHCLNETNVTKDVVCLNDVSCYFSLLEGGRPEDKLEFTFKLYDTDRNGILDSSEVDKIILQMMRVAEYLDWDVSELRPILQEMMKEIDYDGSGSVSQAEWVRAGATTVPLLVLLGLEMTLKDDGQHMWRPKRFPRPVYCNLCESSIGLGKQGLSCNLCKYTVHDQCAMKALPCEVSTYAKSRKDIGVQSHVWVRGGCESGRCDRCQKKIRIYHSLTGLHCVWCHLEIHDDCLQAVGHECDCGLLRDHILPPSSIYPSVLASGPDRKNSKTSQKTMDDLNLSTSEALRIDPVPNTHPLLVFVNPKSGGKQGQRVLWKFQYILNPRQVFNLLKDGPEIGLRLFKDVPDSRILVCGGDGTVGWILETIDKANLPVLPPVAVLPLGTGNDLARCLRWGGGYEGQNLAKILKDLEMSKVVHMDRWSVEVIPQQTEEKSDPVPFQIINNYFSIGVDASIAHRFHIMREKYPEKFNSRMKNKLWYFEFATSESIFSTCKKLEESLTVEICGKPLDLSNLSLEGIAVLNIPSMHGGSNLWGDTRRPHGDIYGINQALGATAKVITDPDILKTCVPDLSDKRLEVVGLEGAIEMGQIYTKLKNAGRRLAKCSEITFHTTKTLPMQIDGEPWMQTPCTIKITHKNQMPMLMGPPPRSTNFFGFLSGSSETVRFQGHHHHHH
Protocol notes: DGKα LIPGLO assay (extruded liposome substrate), in vitro DGK inhibition
Format: biochemical
Settings: liposome (LIPGLO) assay; read-out: DGKa LIPGLO IC50
Quantity measured: IC50 (µM)
State just the number; it will be interpreted in µM.

For reference, reported IC50 for COc1cc(F)ccc1C(c1ccc(F)cc1)N1C[C@H](C)N(c2cc(=O)n(C)c3ccc(C#N)nc23)C[C@H]1C (single isomer, unassigned) [Example 108] stands at 3.4

For reference, reported IC50 for CC[C@H]1CN(C(c2ccc(F)cc2)c2nc(C3CC3)cs2)[C@H](CC)CN1c1cc(=O)n(C)c2ccc(C#N)nc12 (some centres unmarked) [Example 1066] stands at 0.028

For reference, reported IC50 for C[C@@H]1CN(c2cc(=O)n(C)c3ccc(C#N)nc23)[C@@H](C)CN1C(c1ccc(Cl)cc1)c1ccncn1 (single isomer, unassigned) [Example 396] stands at 1.3

For reference, reported IC50 for CC(c1ccc(C2(C#N)CC2)cc1F)N1C[C@H](C)N(c2cc(=O)n(C)c3ccc(C#N)nc23)C[C@H]1C (single isomer, unassigned) [Example 1252] stands at 5.7

For reference, reported IC50 for Cc1ccc(C(c2cccc(F)c2)N2C[C@H](C)N(c3cc(=O)n(C)c4ccc(C#N)nc34)C[C@H]2C)cn1 (single isomer, unassigned) [Example 395] stands at 48

For reference, reported IC50 for CC[C@@H]1CN(c2cc(=O)n(C)c3ccc(C#N)nc23)[C@@H](C)CN1C(c1ccc(F)cc1)c1nc(C2CC2)no1 (some centres unmarked) [Example 1116] stands at 0.031

For reference, reported IC50 for Cc1nc2c(C(C)N3C[C@H](C)N(c4cc(=O)n(C)c5ccc(C#N)nc45)C[C@H]3C)cccc2o1 (single isomer, unassigned) [Example 1260] stands at 54

For reference, reported IC50 for COC[C@@H]1CN(c2cc(=O)n(C)c3ccc(C#N)nc23)[C@@H](C)CN1Cc1cc(F)c(F)c(F)c1 [Example 1161] stands at 18

For reference, reported IC50 for CC(C)Oc1ncccc1C(c1ccc(F)cc1)N1C[C@H](C)N(c2cc(=O)n(C)c3ccc(C#N)nc23)C[C@H]1C (single isomer, unassigned) [Example 207] stands at 71

For reference, reported IC50 for CC[C@H]1CN(C(c2cccc(F)c2)c2ccc(F)cn2)[C@H](CC)CN1c1cc(=O)n(C)c2ccc(C#N)nc12 (single isomer, unassigned) [Example 1041] stands at 0.036

For reference, reported IC50 for Cn1c(=O)cc(N2CCN(C(c3ccc(F)cc3)c3ccc(F)cc3)CC2C(N)=O)c2nc(C#N)ccc21 (single isomer, unassigned) [Example 141] stands at 240

For reference, reported IC50 for C[C@@H]1CN(c2c(C#N)c(=O)n(C)c3ccc(C#N)nc23)CCN1C(c1ccc(F)cc1)c1ccc(F)cc1 [Example 32] stands at 0.98

For reference, reported IC50 for CC[C@@H]1CN(c2cc(=O)n(C)c3ccc(C#N)nc23)[C@@H](C)CN1C(C)c1ccc(F)cc1 (single isomer, unassigned) [Example 1083] stands at 0.037

For reference, reported IC50 for C[C@@H]1CN(c2c(Cl)c(=O)n(C)c3ccc(C#N)nc23)[C@@H](C)CN1C(c1ccccc1)c1ccc(F)cc1 (single isomer, unassigned) [Example 217] stands at 50

For reference, reported IC50 for C[C@@H]1CN(c2cc(=O)n(C)c3ccc(C#N)nc23)[C@@H](C)CN1C(c1ccc(Cl)cc1)c1cc(F)ccn1 (some centres unmarked) [Example 446] stands at 1.7

For reference, reported IC50 for COC(=O)C1CN(C(c2ccc(F)cc2)c2ccc(F)cc2)CCN1c1c(C#N)c(=O)n(C)c2ccc(Br)nc12 (centres unmarked) [Example 115] stands at 1

For reference, reported IC50 for CC(c1cccc2c1OC(F)(F)O2)N1C[C@H](C)N(c2cc(=O)n(C)c3ccc(C#N)nc23)C[C@H]1C (single isomer, unassigned) [Example 1216] stands at 83

For reference, reported IC50 for Cc1ccc(C(c2cccc3c2OCCCO3)N2C[C@H](C)N(c3cc(=O)n(C)c4ccc(C#N)nc34)C[C@H]2C)nc1 (single isomer, unassigned) [Example 469] stands at 1.7

For reference, reported IC50 for CCC(c1ccc(OC(F)(F)F)cc1F)N1C[C@H](CC)N(c2cc(=O)n(C)c3ccc(C#N)nc23)C[C@H]1CC (single isomer, unassigned) [Example 1058] stands at 0.75

For reference, reported IC50 for CC[C@@H]1CN(c2cc(=O)n(C)c3ccc(C#N)nc23)[C@@H](C)CN1C(C)c1c(F)cc(F)cc1F (single isomer, unassigned) [Example 1090] stands at 4.1

For reference, reported IC50 for COCCOc1cc(C(C)N2C[C@H](C)N(c3cc(=O)n(C)c4ccc(C#N)nc34)C[C@H]2C)ccc1OC (single isomer, unassigned) [Example 1302] stands at 130

For reference, reported IC50 for CC[C@@H]1CN(c2cc(=O)n(C)c3ccc(C#N)nc23)[C@@H](C)CN1Cc1ccc(OC(F)F)cc1 [Example 1330] stands at 0.044

For reference, reported IC50 for Cn1c(=O)cc(N2CCN(C(c3ccc(F)cc3)c3ccc(F)cc3)CC2CO)c2nc(C#N)ccc21 (single isomer, unassigned) [Example 148] stands at 240

---

Target: human DGKα (Homo sapiens, UniProt P23743)
Construct: TVMV protease cleavage site (C); Hexa-His (C); made in house; host or cells: Sf9 insect cells (baculovirus, Bac-to-Bac)
Protocol notes: DGKα LIPGLO assay (extruded liposome substrate), in vitro DGK inhibition
Assay type: biochemical
Settings: liposome (LIPGLO) assay; read-out: DGKa LIPGLO IC50
Kindly state IC50 for each of the entries shown.
State just the number; it will be interpreted in µM.

For reference, reported IC50 for CC[C@H]1CN(C(C)c2ccc(OC)cc2)[C@H](CC)CN1c1cc(=O)n(C)c2ccc(C#N)nc12 (single isomer, unassigned) [Example 1366] stands at 0.024

For reference, reported IC50 for Cn1c(=O)cc(N2CC(C3CC3)N(C(c3ccc(F)cc3)c3ccc(F)cc3)CC2C2CC2)c2nc(C#N)ccc21 (single isomer, unassigned) [Example 152] stands at 7.7

For reference, reported IC50 for C[C@@H]1CN(c2cc(=O)n(C)c3ccc(C#N)nc23)[C@@H](C)CN1C(c1ccc(F)cc1)c1cccc(N2CCOCC2)c1 (single isomer, unassigned) [Example 673] stands at 4.7

For reference, reported IC50 for CC(c1ccc(C(F)(F)F)cc1F)N1C[C@H](C)N(c2cc(=O)n(C)c3ccc(C#N)nc23)C[C@H]1C (single isomer, unassigned) [Example 434] stands at 1.8

For reference, reported IC50 for `Cc1ccc(C(c2ccc(C)cc2)N2C[C@H](C)N(c3cc(=O)n(C)c4ccc(C#N)nc34)C[C@H]2CO)cc1` stands at 18

For reference, reported IC50 for C[C@@H]1CN(c2cc(=O)n(C)c3ccc(C#N)nc23)[C@@H](C)CN1C(c1ccc(Cl)cc1)c1ccc(F)c2c1OC(C)(C)C2 (single isomer, unassigned) [Example 459] stands at 36

---

Target: human DGKα (Homo sapiens)
Construct: TVMV protease cleavage site (C); Hexa-His (C); made in house; host or cells: Sf9 insect cells (baculovirus, Bac-to-Bac)
Protocol notes: DGKα LIPGLO assay (extruded liposome substrate), in vitro DGK inhibition
Format: biochemical
Settings: liposome (LIPGLO) assay; read-out: DGKa LIPGLO IC50
Label True when IC50 < 0.8 µM; otherwise False.

Ask: I wonder whether `C[C@@H]1CN(c2c(C#N)c(=O)n(C)c3ccc(Br)nc23)CCN1C(c1ccc(Cl)cc1)c1ccc(Cl)cc1` has IC50 below 0.8 µM. Can you tell?
Result: False

Ask: I wonder whether COC(=O)C1CN(c2cc(=O)n(C)c3ccc(C#N)nc23)CCN1C(c1ccc(F)cc1)c1ccc(F)cc1OC (single isomer, unassigned) [Example 69] has IC50 below 0.8 µM. Can you tell?
Result: False

Ask: I wonder whether COc1cc(F)ccc1C(c1ccc(F)cc1)N1C[C@H](C)N(c2cc(=O)n(C)c3ccc(C#N)nc23)C[C@H]1C (single isomer, unassigned) [Example 109] has IC50 below 0.8 µM. Can you tell?
Result: False

Ask: I wonder whether Cn1c(=O)cc(N2CCN(C(c3ccc(F)cc3)c3ccc(F)cc3)C(C(C)(C)O)C2)c2nc(C#N)ccc21 (single isomer, unassigned) [Example 78] has IC50 below 0.8 µM. Can you tell?
Result: False

Ask: I wonder whether C[C@@H]1CN(c2cc(=O)n(C)c3ccc(C#N)nc23)[C@@H](C)CN1C(c1ccc(F)cc1)c1cncc(F)c1 (single isomer, unassigned) [Example 386] has IC50 below 0.8 µM. Can you tell?
Result: False

Ask: I wonder whether CC[C@@H]1CN(c2cc(=O)n(C)c3ccc(C#N)nc23)[C@@H](C)CN1C(C)c1ccc(F)cc1 (single isomer, unassigned) [Example 1084] has IC50 below 0.8 µM. Can you tell?
Result: False

Ask: I wonder whether `C[C@@H]1CN(c2cc(=O)n(C)c3ccc(C#N)nc23)[C@@H](C)CN1Cc1cc(-c2ccccc2)no1` has IC50 below 0.8 µM. Can you tell?
Result: False

Ask: I wonder whether CCC(c1ccc(OC(C)C)cc1)N1C[C@H](C)N(c2cc(=O)n(C)c3ccc(C#N)nc23)C[C@H]1C (single isomer, unassigned) [Example 1450] has IC50 below 0.8 µM. Can you tell?
Result: False

Ask: I wonder whether C[C@@H]1CN(c2cc(=O)n(C)c3ccc(C#N)nc23)[C@@H](C)CN1C(c1ccccn1)c1ccc(F)cc1F (single isomer, unassigned) [Example 682] has IC50 below 0.8 µM. Can you tell?
Result: True

Ask: I wonder whether `C[C@@H]1CN(C(c2ccc(F)cc2)c2ccc(F)cc2)[C@@H](C)CN1c1c(C#N)c(=O)n(C)c2ccc(C#N)nc12` has IC50 below 0.8 µM. Can you tell?
Result: False

Ask: I wonder whether C[C@@H]1CN(c2cc(=O)n(C)c3ccc(C#N)nc23)[C@@H](C)CN1C(c1ccc(F)cc1)c1ccc(C(F)F)cc1 (single isomer, unassigned) [Example 667] has IC50 below 0.8 µM. Can you tell?
Result: False

Ask: I wonder whether `C[C@@H]1CN(C(c2ccc(F)cc2)c2ccc(F)cc2)CCN1c1cc(=O)n(C)c2ccc(C#N)nc12` has IC50 below 0.8 µM. Can you tell?
Result: False

Ask: I wonder whether COC[C@@H]1CN(c2cc(=O)n(C)c3ccc(C#N)nc23)[C@@H](C)CN1C(c1ccc(F)cc1)c1ccon1 (single isomer, unassigned) [Example 1400] has IC50 below 0.8 µM. Can you tell?
Result: True

Ask: I wonder whether `C[C@@H]1CN(c2c(F)c(=O)n(C)c3ccc(C#N)nc23)CCN1C(c1ccc(Cl)cc1)c1ccc(Cl)cc1` has IC50 below 0.8 µM. Can you tell?
Result: True

Ask: I wonder whether C[C@@H]1CN(c2cc(=O)n(C)c3ccc(C#N)nc23)[C@@H](C)CN1C(c1ccc(F)cc1)c1cocn1 (single isomer, unassigned) [Example 710] has IC50 below 0.8 µM. Can you tell?
Result: True

Ask: I wonder whether CC[C@H]1CN(C(c2ccc(F)cc2)c2cocn2)[C@H](CC)CN1c1cc(=O)n(C)c2ccc(C#N)nc12 (single isomer, unassigned) [Example 1068] has IC50 below 0.8 µM. Can you tell?
Result: True

Ask: I wonder whether `C[C@H]1CN(C(c2ccc(F)cc2)c2ccc(F)cc2)[C@H](CO)CN1c1cc(=O)n(C)c2ccc(C#N)nc12` has IC50 below 0.8 µM. Can you tell?
Result: False

Ask: I wonder whether COC(=O)C1CN(c2cc(=O)n(C)c3ccc(C#N)nc23)CCN1C(c1ccc(F)cc1)c1ccc(F)cc1OC (single isomer, unassigned) [Example 67] has IC50 below 0.8 µM. Can you tell?
Result: False

Ask: I wonder whether Cc1cccc(C(c2cccc(F)c2)N2C[C@H](C)N(c3cc(=O)n(C)c4ccc(C#N)nc34)C[C@H]2C)n1 (single isomer, unassigned) has IC50 below 0.8 µM. Can you tell?
Result: False

Ask: I wonder whether CC[C@H]1CN(C(c2ccc(F)cc2)c2ccc(C#N)cc2)[C@H](COC)CN1c1cc(=O)n(C)c2ccc(C#N)nc12 (single isomer, unassigned) [Example 1170] has IC50 below 0.8 µM. Can you tell?
Result: True

Ask: I wonder whether CC[C@H]1CN(C(C)c2ccc3c(c2)OC(F)(F)O3)[C@H](CC)CN1c1cc(=O)n(C)c2ccc(C#N)nc12 (single isomer, unassigned) [Example 1368] has IC50 below 0.8 µM. Can you tell?
Result: True

Ask: I wonder whether COC(=O)C1CN(c2c(F)c(=O)n(C)c3ccc(C#N)nc23)CCN1C(c1ccc(F)cc1)c1ccc(F)cc1 (single isomer, unassigned) [Example 75] has IC50 below 0.8 µM. Can you tell?
Result: False
